Target: Casein kinase I isoform epsilon (Homo sapiens, UniProt P49674)
Sequence (P49674 whole entry, canonical isoform): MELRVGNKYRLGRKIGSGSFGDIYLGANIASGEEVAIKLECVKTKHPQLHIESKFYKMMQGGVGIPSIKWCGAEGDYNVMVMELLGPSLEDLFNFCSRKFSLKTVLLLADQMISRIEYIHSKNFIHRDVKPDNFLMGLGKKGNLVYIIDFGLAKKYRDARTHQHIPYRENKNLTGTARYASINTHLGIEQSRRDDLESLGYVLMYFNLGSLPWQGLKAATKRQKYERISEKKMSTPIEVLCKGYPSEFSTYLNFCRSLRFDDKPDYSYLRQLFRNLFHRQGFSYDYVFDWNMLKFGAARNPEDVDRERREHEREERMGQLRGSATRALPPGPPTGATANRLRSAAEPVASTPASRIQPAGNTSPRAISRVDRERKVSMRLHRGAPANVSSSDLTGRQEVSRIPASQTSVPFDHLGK
Assay: Inhibition of wild-type human CK1epsilon using PLSRTLpSVASLPGL as substrate incubated for 70 mins in presence of ATP by Kinase-Glo luminescence assay
endpoint_name: IC50 (nM)
Unit nM implied. Number only.

In plain terms, Nc1nccc(-c2c(-c3ccc(F)cc3)ncn2C2CCN(Cc3ccon3)CC2)n1 has a documented IC50 of 17

---

Target: Casein kinase I isoform delta (Homo sapiens, UniProt P48730)
Assay: Inhibition of recombinant human full-length N-terminal GST-tagged CK1delta using casein as substrate measured after 10 mins in presence of ATP by Kinase-Glo reagent-based luminescence assay
Sequence (P48730 whole entry, the tested form may be a part, canonical isoform): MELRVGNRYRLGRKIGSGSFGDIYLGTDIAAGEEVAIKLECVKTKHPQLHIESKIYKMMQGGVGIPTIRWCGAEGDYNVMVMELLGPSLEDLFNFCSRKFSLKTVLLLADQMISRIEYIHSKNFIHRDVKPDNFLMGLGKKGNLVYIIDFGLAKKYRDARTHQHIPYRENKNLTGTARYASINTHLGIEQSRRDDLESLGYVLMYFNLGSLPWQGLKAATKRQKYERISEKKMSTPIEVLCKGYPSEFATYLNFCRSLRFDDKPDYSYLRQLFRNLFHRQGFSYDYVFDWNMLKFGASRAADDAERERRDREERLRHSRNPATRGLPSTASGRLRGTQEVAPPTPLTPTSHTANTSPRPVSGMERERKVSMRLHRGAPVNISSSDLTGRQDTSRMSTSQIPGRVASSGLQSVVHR
endpoint_name: IC50 (nM)
Unit nM implied. Number only.

In plain terms, Nc1nc(NCc2ccccc2)nc2nc(-c3cc(O)cc(O)c3)nn12 has a documented IC50 of 300

---

Field: inhibition. Provide a value for each of the compounds that follow.
Biological target: Casein kinase I isoform delta (Homo sapiens, UniProt P48730)
Assay: Inhibition of recombinant human N-terminal GST-tagged CK1delta (1 to 294 residues) at 40 uM using casein as substrate measured after 60 mins in presence of ATP by Kinase-Glo reagent-based luminescence assay relative to control
Sequence (P48730 whole entry, looked up, the tested form may be a part, canonical isoform): as the sequence (P48730 whole entry, the tested form may be a part, canonical isoform) above
Unit % implied. Number only.

In plain terms, CCOC(=O)c1cnc(NCc2ccc(-c3ccccc3)cc2)n2nc(-c3cccc(OC)c3)nc12 has a documented inhibition of 17.5

In plain terms, CCOC(=O)c1cnc(N)n2nc(-c3ccc(F)cc3)nc12 has a documented inhibition of 44.7

In plain terms, CCOC(=O)c1cnc(NCc2ccccc2)n2nc(-c3cccc(O)c3)nc12 has a documented inhibition of 1.2

In plain terms, CCOC(=O)c1cnc(N)n2nc(-c3ccncc3)nc12 has a documented inhibition of 59.7

In plain terms, COc1cc(OC)cc(-c2nc3nc(NCc4cccc(C)c4)nc(N)n3n2)c1 has a documented inhibition of 13.9

In plain terms, COc1cc(OC)cc(-c2nc3nc(NCc4ccc(Cl)cc4)nc(N)n3n2)c1 has a documented inhibition of 9.7

In plain terms, CCOC(=O)c1cnc(N)n2nc(-c3ccc(OCc4ccccc4)cc3)nc12 has a documented inhibition of 39.7

In plain terms, CCOC(=O)c1cnc(NCc2ccccc2)n2nc(-c3cccc(OC)c3)nc12 has a documented inhibition of 10.9

In plain terms, COc1cc(OC)cc(-c2nc3cc(NCc4ccccc4)nc(N)n3n2)c1 has a documented inhibition of 19.4

In plain terms, CCNC(=O)c1cnc(N)n2nc(-c3cccc(O)c3)nc12 has a documented inhibition of 90.4

In plain terms, Cc1cccc(CNc2nc(N)n3nc(-c4cc(O)cc(O)c4)nc3n2)c1 has a documented inhibition of 79.7

In plain terms, COc1cccc(-c2nc3nc(NCc4ccccc4)nc(N)n3n2)c1 has a documented inhibition of 18.1

In plain terms, CCOC(=O)c1cnc(N)n2nc(-c3ccc(OC)cc3)nc12 has a documented inhibition of 50.3

In plain terms, CCOC(=O)c1cnc(N)n2nc(-c3ccc(O)c(O)c3)nc12 has a documented inhibition of 98

In plain terms, Nc1nc(NCc2ccc(F)cc2)nc2nc(-c3cc(O)cc(O)c3)nn12 has a documented inhibition of 87

In plain terms, CCOC(=O)c1cnc(N)n2nc(-c3ccccc3)nc12 has a documented inhibition of 62.2

In plain terms, CCOC(=O)c1cnc(N)n2nc(-c3cccc(O)c3)nc12 has a documented inhibition of 88.9
